assay: Metabolic stability in BALB/c mouse hepatic microsomes assessed per mg of microsomal protein at 1 umol/L preincubated for 5 mins by LC-MS/MS method; format: ADME, Liver, Microsome; conditions: 1 µM
Assign labels as follows, please: t for Intrinsic clearance below 200 µL/min/mg; f for Intrinsic clearance equal to or exceeding 200 µL/min/mg.

Consider the worked cases shown below.
CCNC(=S)N[C@H]1CCc2c(Cl)c(OC)c(OC)c(OC)c2-c2ccc(OC)c(=O)cc21
t
CCS(=O)(=O)N[C@H]1CCc2c(Cl)c(OC)c(OC)c(OC)c2-c2ccc(OC)c(=O)cc21
t
COc1c(Cl)c2c(c(OC)c1OC)-c1ccc(OC)c(=O)cc1[C@@H](NC(=S)Nc1n[nH]c(C)n1)CC2
f

QUERY: Does COc1c(Cl)c2c(c(OC)c1OC)-c1ccc(OC)c(=O)cc1[C@@H](NC(=O)N1CCCCC1)CC2 have Intrinsic clearance strictly under 200 µL/min/mg?
RESULT: t

QUERY: Now consider COc1c(Cl)c2c(c(OC)c1OC)-c1ccc(OC)c(=O)cc1[C@@H](NC(=S)N1CCOCC1)CC2 .
RESULT: t

QUERY: Follow-up item: COc1c(Cl)c2c(c(OC)c1OC)-c1ccc(OC)c(=O)cc1[C@@H](NC(=S)Nc1ccn(C)n1)CC2
RESULT: t

QUERY: Another molecule to look at: COc1c(Cl)c2c(c(OC)c1OC)-c1ccc(OC)c(=O)cc1[C@@H](NC(=S)Nc1cc[nH]n1)CC2
RESULT: t

QUERY: Also, CCN(CC)C(=S)N[C@H]1CCc2c(Cl)c(OC)c(OC)c(OC)c2-c2ccc(OC)c(=O)cc21 please.
RESULT: f

###

experiment: Metabolic stability in BALB/c mouse hepatic microsomes assessed per mg of microsomal protein at 1 umol/L preincubated for 5 mins by LC-MS/MS method; format: ADME, Liver, Microsome; settings: 1 µM
This section presents molecules with their documented log10 Intrinsic clearance values.
Form field - Quantity: Intrinsic clearance; Unit: µL/min/mg; Scale: log10

See these solved cases before continuing.
COc1c(Cl)c2c(c(OC)c1OC)-c1ccc(OC)c(=O)cc1[C@@H](NC(=S)Nc1nc[nH]n1)CC2
1.94
COc1c(Cl)c2c(c(OC)c1OC)-c1ccc(OC)c(=O)cc1[C@@H](NC(=S)Nc1ccc(N(C)C)cc1)CC2
2.18
COc1c(Cl)c2c(c(OC)c1OC)-c1ccc(OC)c(=O)cc1[C@@H](NC(=S)Nc1cc(C)[nH]n1)CC2
0.60
CCN(CC)C(=O)N[C@H]1CCc2c(Cl)c(OC)c(OC)c(OC)c2-c2ccc(OC)c(=O)cc21
1.32
COc1c(Cl)c2c(c(OC)c1OC)-c1ccc(OC)c(=O)cc1[C@@H](NC(C)=O)CC2
1.45

# context switch: different molecule, same log10 Intrinsic clearance
QUERY: Given the entry COc1cc2c(c(OC)c1OC)-c1ccc(OC)c(=O)cc1[C@@H](NC(C)=O)CC2 , report its measured log10 Intrinsic clearance.
RESULT: 0.00
